Values from patent US8946436B2

The entries below are paired with their reported melting point.
PROPERTY_NAME: melting point

1. CC(=O)NC[C@H]1CN(c2ccc(-n3nccc3-c3ccc(Br)cc3)c(F)c2)C(=O)O1 [Compound 14d] :: 96.8 to 98.8 °C
2. CC(=O)NC[C@H]1CN(c2ccc(-n3cc(-c4ccc(Cl)cc4)cn3)c(F)c2)C(=O)O1 [Compound 13d] :: 237.5 to 238.2 °C
3. CC(=O)NC[C@H]1CN(c2ccc(-n3nccc3-c3ccc(C)cc3)c(F)c2)C(=O)O1 [Compound 14c] :: 89.5 to 91.9 °C
4. COc1ccc(-c2cnn(-c3ccc(N4C[C@H](CNC(C)=O)OC4=O)cc3F)c2)cc1 [Compound 13c] :: 226.1 to 227.8 °C

* * *

Listed here are molecules together with their documented melting point.
PROPERTY_NAME: melting point

1) CC(=O)NC[C@H]1CN(c2ccc(-n3nccc3-c3ccncc3)c(F)c2)C(=O)O1 [Compound 14h] :: 74.5 to 76.3 °C
2) CC(=O)NC[C@H]1CN(c2ccc(-n3cc(-c4ccc(C(=O)O)cn4)cn3)c(F)c2)C(=O)O1 [Compound 13e] :: 279.6 to 280.2 °C
3) CC(=O)NC[C@H]1CN(c2ccc(-n3nccc3-c3cccc(Br)n3)c(F)c2)C(=O)O1 [Compound 14b] :: 90.5 to 92.3 °C
4) CC(=O)NC[C@H]1CN(c2ccc(-n3nccc3-c3ccc(Br)cn3)c(F)c2)C(=O)O1 [Compound 14g] :: 92.7 to 95.4 °C
5) CC(=O)NC[C@H]1CN(c2ccc(-n3cc(-c4ccc(C)cc4)cn3)c(F)c2)C(=O)O1 [Compound 13b] :: 221.5 to 222.8 °C
6) CSc1ccc(-c2ccnn2-c2ccc(N3C[C@H](CNC(C)=O)OC3=O)cc2F)cc1 [Compound 14f] :: 175.4 to 177.6 °C
7) CC(=O)NC[C@H]1CN(c2ccc(-n3nccc3-c3ccccn3)c(F)c2)C(=O)O1 [Compound 14e] :: 79.9 to 82.1 °C
8) COc1ccc(-c2ccnn2-c2ccc(N3C[C@H](CNC(C)=O)OC3=O)cc2F)cc1OC [Compound 14j] :: 153.7 to 156.1 °C
9) CC(=O)NC[C@H]1CN(c2ccc(-n3nccc3-c3ccc(F)cc3)c(F)c2)C(=O)O1 [Compound 14i] :: 111.4 to 112.9 °C

* * *

test system: L-02; assay: Cytotoxicity experiment (MTT), L-02; format: cell-based; details: Homo sapiens, L02, 48 h, L-02 normal cells, read-out: Inhibition ratio
PROPERTY_NAME: cytotoxicity at 50 µM (%)

1. COc1ccc(-c2ccnn2-c2ccc(N3C[C@H](CNC(C)=O)OC3=O)cc2F)cc1OC [Compound 14j] :: 12
2. CC(=O)NC[C@H]1CN(c2ccc(-n3nccc3-c3ccc(F)cc3)c(F)c2)C(=O)O1 [Compound 14i] :: 9
3. CC(=O)NC[C@H]1CN(c2ccc(-n3nccc3-c3ccncc3)c(F)c2)C(=O)O1 [Compound 14h] :: 14
4. CC(=O)NC[C@H]1CN(c2ccc(-n3nccc3-c3ccc(Br)cn3)c(F)c2)C(=O)O1 [Compound 14g] :: 5.9

* * *

System: L-02
Assay: Cytotoxicity experiment (MTT), L-02
Format: cell-based
Details: Homo sapiens, L02, 48 h, L-02 normal cells, read-out: Inhibition ratio
Protocol: (1) Inoculating cells: Experimental cells in the growth of logarithmic phase were collected and suspended. […] (4) Ascertainment of colorimetry: The absorbance value at 490 nm of each well was determined by Enzyme-linked immunosorbent Monitor. The growth curve of the experimental cells was plotted by taking time as x-coordinate and absorbance value as y-coordinate. […]
Label y when cytotoxicity at 50 µM is strictly below 20%; otherwise label n.

1) CC(=O)NC[C@H]1CN(c2ccc(-n3cc(-c4ccccn4)cn3)c(F)c2)C(=O)O1 [Compound 13f] :: y
2) CC(=O)NC[C@H]1CN(c2ccc(-n3cc(-c4ccc(C(=O)O)cn4)cn3)c(F)c2)C(=O)O1 [Compound 13e] :: n
3) CC(=O)NC[C@H]1CN(c2ccc(-n3nccc3-c3cccc(Br)n3)c(F)c2)C(=O)O1 [Compound 14b] :: n
4) CSc1ccc(-c2ccnn2-c2ccc(N3C[C@H](CNC(C)=O)OC3=O)cc2F)cc1 [Compound 14f] :: n

* * *

test system: S. agalactiae; assay: In vitro antibacterial activity (MIC), S. agalactiae; format: cell-based; conditions: Streptococcus agalactiae; S. agalactiae (5 strains); read-out: MIC
PROPERTY_NAME: MIC

1. CC(=O)NC[C@H]1CN(c2ccc(-n3nccc3-c3cccnc3)c(F)c2)C(=O)O1 [Compound 14a] :: 2 to 16 µg/mL
2. CC(=O)NC[C@H]1CN(c2ccc(-n3nccc3-c3ccc(C)cc3)c(F)c2)C(=O)O1 [Compound 14c] :: 2 to 32 µg/mL
3. COc1ccc(-c2cnn(-c3ccc(N4C[C@H](CNC(C)=O)OC4=O)cc3F)c2)cc1 [Compound 13c] :: 0.5 to 8 µg/mL
4. CC(=O)NC[C@H]1CN(c2ccc(-n3cc(-c4ccc(C)cc4)cn3)c(F)c2)C(=O)O1 [Compound 13b] :: 0.25 to 8 µg/mL
5. CC(=O)NC[C@H]1CN(c2ccc(-n3cc(-c4ccccn4)cn3)c(F)c2)C(=O)O1 [Compound 13f] :: 0.25 to 2 µg/mL
6. CC(=O)NC[C@H]1CN(c2ccc(-n3nccc3-c3cccc(Br)n3)c(F)c2)C(=O)O1 [Compound 14b] :: 4 to 32 µg/mL
7. CC(=O)NC[C@H]1CN(c2ccc(-n3cc(-c4ccncc4)cn3)c(F)c2)C(=O)O1 [Compound 13a] :: 0.25 to 16 µg/mL
8. CC(=O)NC[C@H]1CN(c2ccc(-n3ccc(-c4ccccn4)n3)c(F)c2)C(=O)O1 [Compound 12a] :: 2 to 16 µg/mL
9. CC(=O)NC[C@H]1CN(c2ccc(-n3nccc3-c3ccc(F)cc3)c(F)c2)C(=O)O1 [Compound 14i] :: 0.5 to 4 µg/mL
10. CC(=O)NC[C@H]1CN(c2ccc(-n3nccc3-c3ccccn3)c(F)c2)C(=O)O1 [Compound 14e] :: 0.25 to 16 µg/mL
11. CSc1ccc(-c2ccnn2-c2ccc(N3C[C@H](CNC(C)=O)OC3=O)cc2F)cc1 [Compound 14f] :: 0.25 to 8 µg/mL
12. CC(=O)NC[C@H]1CN(c2ccc(-n3nccc3-c3ccc(Br)cn3)c(F)c2)C(=O)O1 [Compound 14g] :: 0.5 to 8 µg/mL
13. CC(=O)NC[C@H]1CN(c2ccc(-n3nccc3-c3ccncc3)c(F)c2)C(=O)O1 [Compound 14h] :: 0.5 to 8 µg/mL
14. CC(=O)NC[C@H]1CN(c2ccc(-n3cc(-c4ccc(C(=O)O)cn4)cn3)c(F)c2)C(=O)O1 [Compound 13e] :: 0.5 to 4 µg/mL

* * *

tested on: L-02; test: Cytotoxicity experiment (MTT), L-02; type: cell-based; settings: Homo sapiens, L02, 48 h, L-02 normal cells, read-out: Inhibition ratio
PROPERTY_NAME: cytotoxicity at 50 µM (%)

1. CC(=O)NC[C@H]1CN(c2ccc(-n3nccc3-c3ccc(C)cc3)c(F)c2)C(=O)O1 [Compound 14c] :: 39
2. CC(=O)NC[C@H]1CN(c2ccc(-n3cc(-c4ccc(C)cc4)cn3)c(F)c2)C(=O)O1 [Compound 13b] :: 5.58
3. COc1ccc(-c2cnn(-c3ccc(N4C[C@H](CNC(C)=O)OC4=O)cc3F)c2)cc1 [Compound 13c] :: 10.4
4. CC(=O)NC[C@H]1CN(c2ccc(-n3cc(-c4ccncc4)cn3)c(F)c2)C(=O)O1 [Compound 13a] :: 4
5. CC(=O)NC[C@H]1CN(c2ccc(-n3nccc3-c3ccccn3)c(F)c2)C(=O)O1 [Compound 14e] :: 39
6. CC(=O)NC[C@H]1CN(c2ccc(-n3nccc3-c3ccc(Br)cc3)c(F)c2)C(=O)O1 [Compound 14d] :: 39
7. CC(=O)NC[C@H]1CN(c2ccc(-n3nccc3-c3cccnc3)c(F)c2)C(=O)O1 [Compound 14a] :: 7.51
8. CC(=O)NC[C@H]1CN(c2ccc(-n3cc(-c4ccc(Cl)cc4)cn3)c(F)c2)C(=O)O1 [Compound 13d] :: 39.3

* * *

system: E. faecalis; test: In vitro antibacterial activity (MIC), E. faecalis; type: cell-based; conditions: Enterococcus faecalis; E. faecalis (7 strains); read-out: MIC
PROPERTY_NAME: MIC

1) CC(=O)NC[C@H]1CN(c2ccc(-n3cc(-c4ccccn4)cn3)c(F)c2)C(=O)O1 [Compound 13f] :: 0.5 to 2 µg/mL
2) CC(=O)NC[C@H]1CN(c2ccc(-n3nccc3-c3ccccn3)c(F)c2)C(=O)O1 [Compound 14e] :: 0.25 to 16 µg/mL
3) CC(=O)NC[C@H]1CN(c2ccc(-n3nccc3-c3cccnc3)c(F)c2)C(=O)O1 [Compound 14a] :: 2 to 16 µg/mL
4) CSc1ccc(-c2ccnn2-c2ccc(N3C[C@H](CNC(C)=O)OC3=O)cc2F)cc1 [Compound 14f] :: 0.5 to 8 µg/mL
5) CC(=O)NC[C@H]1CN(c2ccc(-n3nccc3-c3ccc(C)cc3)c(F)c2)C(=O)O1 [Compound 14c] :: 2 to 32 µg/mL
6) CC(=O)NC[C@H]1CN(c2ccc(-n3nccc3-c3ccc(F)cc3)c(F)c2)C(=O)O1 [Compound 14i] :: 1 to 8 µg/mL
7) CC(=O)NC[C@H]1CN(c2ccc(-n3ccc(-c4ccccn4)n3)c(F)c2)C(=O)O1 [Compound 12a] :: 2 to 16 µg/mL
8) CC(=O)NC[C@H]1CN(c2ccc(-n3nccc3-c3ccc(Br)cn3)c(F)c2)C(=O)O1 [Compound 14g] :: 0.25 to 8 µg/mL
